# assayed_system: GSK3B (Homo sapiens, UniProt P49841)
# Sequence (P49841 whole entry): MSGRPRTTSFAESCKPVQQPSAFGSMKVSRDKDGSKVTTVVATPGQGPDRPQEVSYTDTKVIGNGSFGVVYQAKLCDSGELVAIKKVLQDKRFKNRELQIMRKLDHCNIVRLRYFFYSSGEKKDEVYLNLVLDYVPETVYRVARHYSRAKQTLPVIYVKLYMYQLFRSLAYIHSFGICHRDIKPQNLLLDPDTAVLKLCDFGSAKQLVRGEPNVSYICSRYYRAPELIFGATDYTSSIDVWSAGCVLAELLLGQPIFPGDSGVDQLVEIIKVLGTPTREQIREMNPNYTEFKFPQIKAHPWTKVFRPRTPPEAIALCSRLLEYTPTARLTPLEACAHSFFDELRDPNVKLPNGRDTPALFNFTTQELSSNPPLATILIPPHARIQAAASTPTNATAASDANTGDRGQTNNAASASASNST
pIC50: −log10 of the molar value.
measure_name: pIC50

| molecule | measure_name | val |
| --- | --- | --- |
| O=C(O)c1ccc(-c2[nH]c3cc(F)cc4c3c2CCNC4=O)cc1 | pIC50 | 5.70 |

---

# assayed_system: PLK2 (Homo sapiens)
# Sequence (Q9NYY3 whole entry): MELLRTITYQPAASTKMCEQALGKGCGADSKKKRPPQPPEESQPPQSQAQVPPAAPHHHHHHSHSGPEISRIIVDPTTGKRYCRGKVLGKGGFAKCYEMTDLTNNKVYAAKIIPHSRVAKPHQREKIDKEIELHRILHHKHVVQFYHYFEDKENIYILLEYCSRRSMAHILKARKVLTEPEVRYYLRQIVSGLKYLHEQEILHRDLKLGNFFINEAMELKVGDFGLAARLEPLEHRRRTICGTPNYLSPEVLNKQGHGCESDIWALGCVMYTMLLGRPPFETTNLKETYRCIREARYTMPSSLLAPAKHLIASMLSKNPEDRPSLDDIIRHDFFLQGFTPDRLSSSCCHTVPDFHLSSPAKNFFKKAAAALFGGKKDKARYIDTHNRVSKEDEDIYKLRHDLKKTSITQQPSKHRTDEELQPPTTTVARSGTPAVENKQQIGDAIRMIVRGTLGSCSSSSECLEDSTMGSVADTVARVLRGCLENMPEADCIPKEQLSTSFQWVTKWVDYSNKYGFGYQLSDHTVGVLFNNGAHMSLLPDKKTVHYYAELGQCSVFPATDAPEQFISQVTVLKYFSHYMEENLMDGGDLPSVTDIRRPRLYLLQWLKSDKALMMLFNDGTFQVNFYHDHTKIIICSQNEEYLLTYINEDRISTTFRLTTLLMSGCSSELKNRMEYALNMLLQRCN
pIC50: −log10 of the molar value.
measure_name: pIC50

| molecule | assayed_system | val |
| --- | --- | --- |
| O=C(O)c1ccc(-c2[nH]c3cc(F)cc4c3c2CCNC4=O)cc1 | PLK2 (Homo sapiens) | 6.23 |

---

# assayed_system: GSK3A (Homo sapiens)
# Sequence (P49840 2-483): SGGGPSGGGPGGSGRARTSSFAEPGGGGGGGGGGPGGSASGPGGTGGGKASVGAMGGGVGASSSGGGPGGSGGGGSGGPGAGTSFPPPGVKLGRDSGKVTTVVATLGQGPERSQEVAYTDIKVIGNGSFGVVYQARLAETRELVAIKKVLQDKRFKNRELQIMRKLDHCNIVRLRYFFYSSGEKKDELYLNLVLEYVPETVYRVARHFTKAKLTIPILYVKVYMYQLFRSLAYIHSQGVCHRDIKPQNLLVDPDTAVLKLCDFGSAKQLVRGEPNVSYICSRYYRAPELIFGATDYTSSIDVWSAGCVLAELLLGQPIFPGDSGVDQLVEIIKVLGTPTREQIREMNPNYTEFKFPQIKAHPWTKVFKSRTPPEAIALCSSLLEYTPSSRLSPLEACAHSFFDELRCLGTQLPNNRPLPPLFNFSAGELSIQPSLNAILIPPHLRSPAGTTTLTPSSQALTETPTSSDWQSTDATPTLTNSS
pIC50: −log10 of the molar value.

| molecule | pIC50 |
| --- | --- |
| O=C(O)c1ccc(-c2[nH]c3cc(F)cc4c3c2CCNC4=O)cc1 | 6.24 |

The reported numbers originate from paper doi:10.1101/2022.11.22.517505v1.
